Give measured Ki for each item. Keep answers brief.
Molecular target: CDK2/Cyclin A (Homo sapiens, UniProt P24941)
Construct: made in house; host or cells: CDK2: insect cells (baculovirus); cyclin A: E. coli
Assay: Inhibition of CDK2/Cyclin A retinoblastoma kinase activity (apparent Ki)
Assay type: biochemical
Conditions: read-out: CDK2 Ki

Report its Ki with CDK2/Cyclin A (Homo sapiens, UniProt P24941) as the test system: CCNCc1cncc(-c2ccc3[nH]nc(-c4ncc(C(=O)NCCN(C)C)[nH]4)c3c2)c1C
< 50 nM

Report its Ki with CDK2/Cyclin A (Homo sapiens, UniProt P24941) as the test system: CCNCc1cncc(-c2ccc3[nH]nc(-c4ncc(C(=O)NC5C6CC7CC(C6)CC5C7)[nH]4)c3c2)c1C (stereo not shown)
< 50 nM

Report its Ki with CDK2/Cyclin A (Homo sapiens, UniProt P24941) as the test system: CCNCc1cncc(-c2ccc3[nH]nc(-c4nc(-c5ccccc5)c(C(=O)N5CCC[C@H]5COC)[nH]4)c3c2)c1C
> 200 nM

Report its Ki with CDK2/Cyclin A (Homo sapiens, UniProt P24941) as the test system: CCc1nc(-c2n[nH]c3ccc(-c4cncc(N)c4C)cc23)[nH]c1CC
< 50 nM

Report its Ki with CDK2/Cyclin A (Homo sapiens, UniProt P24941) as the test system: CCNCc1cncc(-c2ccc3[nH]nc(-c4nc(C(=O)NC5CC6CCC(C5)N6)c[nH]4)c3c2)c1C (stereo not shown)
> 200 nM

Report its Ki with CDK2/Cyclin A (Homo sapiens, UniProt P24941) as the test system: CCNCc1cncc(-c2ccc3[nH]nc(-c4nc(C(=O)NCc5ccccn5)c[nH]4)c3c2)c1C
< 50 nM

Report its Ki with CDK2/Cyclin A (Homo sapiens, UniProt P24941) as the test system: CCNCc1cncc(-c2ccc3[nH]nc(-c4nc(-c5ccccc5)c(C(=O)NC5CCCC5)[nH]4)c3c2)c1C
50 to 200 nM

Report its Ki with CDK2/Cyclin A (Homo sapiens, UniProt P24941) as the test system: CCNCc1cncc(-c2ccc3[nH]nc(-c4ncc(C(=O)N5CCC(Oc6ccccc6)CC5)[nH]4)c3c2)c1C
< 50 nM

Report its Ki with CDK2/Cyclin A (Homo sapiens, UniProt P24941) as the test system: CCNCc1cncc(-c2ccc3[nH]nc(-c4cnc[nH]4)c3c2)c1C
< 50 nM

Report its Ki with CDK2/Cyclin A (Homo sapiens, UniProt P24941) as the test system: CCNCc1cncc(-c2ccc3[nH]nc(-c4cc(C)n[nH]4)c3c2)c1C
< 50 nM

Report its Ki with CDK2/Cyclin A (Homo sapiens, UniProt P24941) as the test system: CCNCc1cncc(-c2ccc3[nH]nc(-c4nc(-c5ccc(OC)cc5)c[nH]4)c3c2)c1C
< 50 nM

Report its Ki with CDK2/Cyclin A (Homo sapiens, UniProt P24941) as the test system: CCNCc1cncc(-c2ccc3[nH]nc(-c4nnn[nH]4)c3c2)c1C
> 200 nM

Report its Ki with CDK2/Cyclin A (Homo sapiens, UniProt P24941) as the test system: CCNCc1cncc(-c2ccc3[nH]nc(-c4ncc(C(=O)N5CCN(Cc6ccccc6)CC5)[nH]4)c3c2)c1C
< 50 nM

Report its Ki with CDK2/Cyclin A (Homo sapiens, UniProt P24941) as the test system: Cc1c(N)cncc1-c1ccc2[nH]nc(-c3nc(-c4cccc(F)c4)c[nH]3)c2c1
< 50 nM

Report its Ki with CDK2/Cyclin A (Homo sapiens, UniProt P24941) as the test system: CCNCc1cncc(-c2ccc3[nH]nc(-c4cnco4)c3c2)c1C
50 to 200 nM

Report its Ki with CDK2/Cyclin A (Homo sapiens, UniProt P24941) as the test system: CCNCc1cncc(-c2ccc3[nH]nc(-c4ocnc4C)c3c2)c1C
> 200 nM
